The measured values listed here are drawn from patent US20220033483A1.

Task for the reader: assign each of the following binders its reported koff.
# ASSAYED SYSTEM: T1, cTnI quality control product recombinant protein (human, UniProt P19429 1-210, limits assumed)
# T1 construct: the assay paragraphs only say cTnI; also called cardiac troponin I; cTnI antigen
# T1 sequence (P19429 whole entry): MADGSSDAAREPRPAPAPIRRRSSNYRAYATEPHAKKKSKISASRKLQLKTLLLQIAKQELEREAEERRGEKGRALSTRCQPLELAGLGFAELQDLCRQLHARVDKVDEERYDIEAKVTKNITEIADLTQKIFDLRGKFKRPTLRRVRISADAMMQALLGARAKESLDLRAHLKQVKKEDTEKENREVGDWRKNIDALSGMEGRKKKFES
# ASSAY NAME: AMC biosensor, antibody on sensor
Write the numeric value and append its unit.

Request: May I ask what koff has been recorded for Mutation 1-23 (antibody, V domains shown) VH: QVQLQQSGTELAKPGASVKFSCKASGYTFTSYWMYWIKQRPGQGLEWIGYINPSTGHTDYNQRFKDKATLTADKSSSTAYMQLNSLTSEDSAVYYCARKYWGPFGMDYWGQGTSVTVSS VL: EIFLTQSPAIMSASPGEKVTMTCSASSSVSYVHWYQQKSGTSPKRWIYDTSKLASGIPVRFSGSGSGTSYSLTISSMEAEDAATYYCQQWSSNPYTFGGGTKLEIKR ?
Response: 2.04e-05 s⁻¹

Request: May I ask what koff has been recorded for Mutation 1-20 (antibody, V domains shown) VH: QVQLQQSGTELAKPGASVKFSCKASGYTFSTYWMYWIKQRPGQGLEWIGYLNPSSGHTDYNQKFKDKATLTADKSSSTAYMQLNSLTSEDSAVYYCARRYWGPFGMDYWGQGTSVTVSS VL: EIFLTQSPAIMSASPGEKVTMTCSASSTVSYVHWYQQKSGTSPKRWLYDTSKIASGIPVRFSGSGSGTSYSLTISSMEAEDAATYYCQQWSSQPYTFGGGTKLEIKR ?
Response: 2.3e-05 s⁻¹

Request: May I ask what koff has been recorded for Mutation 1-34 (antibody, V domains shown) VH: QVQLQQSGTELAKPGASVKFSCKASGYTFTSYWMYWIKQRPGQGLEWIGYINPSSGHTDYNQKFKDKATLTADKSSSTAYMQLNSLTSEDSAVYYCARKYYGPFGMDYWGQGTSVTVSS VL: EIFLTQSPAIMSASPGEKVTMTCSASTTVSYVHWYQQKSGTSPKRWLYDTSKLASGIPVRFSGSGSGTSYSLTISSMEAEDAATYYCQQWSSNPYTFGGGTKLEIKR ?
Response: 1.92e-05 s⁻¹

Request: May I ask what koff has been recorded for Mutation 1-7 (antibody, V domains shown) VH: QVQLQQSGTELAKPGASVKFSCKASGYTFTTYWMYWIKQRPGQGLEWIGYLNPSTGHTDYNQKFKDKATLTADKSSSTAYMQLNSLTSEDSAVYYCARRYYGPFGMDYWGQGTSVTVSS VL: EIFLTQSPAIMSASPGEKVTMTCSASTSVSYVHWYQQKSGTSPKRWLYDTSKLASGIPVRFSGSGSGTSYSLTISSMEAEDAATYYCQQWSTNPYTFGGGTKLEIKR ?
Response: 4.05e-05 s⁻¹

Request: May I ask what koff has been recorded for Mutation 1-56 (antibody, V domains shown) VH: QVQLQQSGTELAKPGASVKFSCKASGYTFTTYWMYWIKQRPGQGLEWIGYLNPSSGHTDYNQRFKDKATLTADKSSSTAYMQLNSLTSEDSAVYYCARRYWGPFGMDYWGQGTSVTVSS VL: EIFLTQSPAIMSASPGEKVTMTCSASTSVSYVHWYQQKSGTSPKRWIYDTSKIASGIPVRFSGSGSGTSYSLTISSMEAEDAATYYCQQWSSNPYTFGGGTKLEIKR ?
Response: 8.86e-05 s⁻¹
